# Target under test: T1, APMA-activated human MMP-1 enzyme active domain (human, UniProt P03956 100-269)
# T1 chain: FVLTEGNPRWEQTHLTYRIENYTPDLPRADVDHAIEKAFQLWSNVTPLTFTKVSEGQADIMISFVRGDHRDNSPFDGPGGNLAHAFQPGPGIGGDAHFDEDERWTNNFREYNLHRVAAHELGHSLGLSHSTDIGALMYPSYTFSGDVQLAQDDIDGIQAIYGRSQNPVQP
# Measurement description: enzyme inhibition
pIC50: −log10 of the molar value.
Endpoint label: pIC50

Binder | pIC50
active MMP-9-binding peptide M91014 (designed binder) GSGMKETAAAKFERQHMDSPDLGTDDDDKAMADIGSANSDPQFGLFSKYRTPNCVMYKYAQCSHKYKPVCGSDMSTYANECTLCMKIREGGHNIKIIRNGPCGASAAA | < 6.00

Now for the binder whose pIC50 we want.
Qu. Consider the binder shown here: active MMP-9-binding peptide M91001 (designed binder) GSGMKETAAAKFERQHMDSPDLGTDDDDKAMADIGSANSDPQFGLFSKYRTPNCQRGIGPSCQMSYKPVCGSDMSTYANECTLCMKIREGGHNIKIIRNGPCGASAAA What is its recorded pIC50?
Ans. < 6.00
